# assay system: Protein deacetylase HDAC6 (Homo sapiens)
# Sequence (Q9UBN7 whole entry): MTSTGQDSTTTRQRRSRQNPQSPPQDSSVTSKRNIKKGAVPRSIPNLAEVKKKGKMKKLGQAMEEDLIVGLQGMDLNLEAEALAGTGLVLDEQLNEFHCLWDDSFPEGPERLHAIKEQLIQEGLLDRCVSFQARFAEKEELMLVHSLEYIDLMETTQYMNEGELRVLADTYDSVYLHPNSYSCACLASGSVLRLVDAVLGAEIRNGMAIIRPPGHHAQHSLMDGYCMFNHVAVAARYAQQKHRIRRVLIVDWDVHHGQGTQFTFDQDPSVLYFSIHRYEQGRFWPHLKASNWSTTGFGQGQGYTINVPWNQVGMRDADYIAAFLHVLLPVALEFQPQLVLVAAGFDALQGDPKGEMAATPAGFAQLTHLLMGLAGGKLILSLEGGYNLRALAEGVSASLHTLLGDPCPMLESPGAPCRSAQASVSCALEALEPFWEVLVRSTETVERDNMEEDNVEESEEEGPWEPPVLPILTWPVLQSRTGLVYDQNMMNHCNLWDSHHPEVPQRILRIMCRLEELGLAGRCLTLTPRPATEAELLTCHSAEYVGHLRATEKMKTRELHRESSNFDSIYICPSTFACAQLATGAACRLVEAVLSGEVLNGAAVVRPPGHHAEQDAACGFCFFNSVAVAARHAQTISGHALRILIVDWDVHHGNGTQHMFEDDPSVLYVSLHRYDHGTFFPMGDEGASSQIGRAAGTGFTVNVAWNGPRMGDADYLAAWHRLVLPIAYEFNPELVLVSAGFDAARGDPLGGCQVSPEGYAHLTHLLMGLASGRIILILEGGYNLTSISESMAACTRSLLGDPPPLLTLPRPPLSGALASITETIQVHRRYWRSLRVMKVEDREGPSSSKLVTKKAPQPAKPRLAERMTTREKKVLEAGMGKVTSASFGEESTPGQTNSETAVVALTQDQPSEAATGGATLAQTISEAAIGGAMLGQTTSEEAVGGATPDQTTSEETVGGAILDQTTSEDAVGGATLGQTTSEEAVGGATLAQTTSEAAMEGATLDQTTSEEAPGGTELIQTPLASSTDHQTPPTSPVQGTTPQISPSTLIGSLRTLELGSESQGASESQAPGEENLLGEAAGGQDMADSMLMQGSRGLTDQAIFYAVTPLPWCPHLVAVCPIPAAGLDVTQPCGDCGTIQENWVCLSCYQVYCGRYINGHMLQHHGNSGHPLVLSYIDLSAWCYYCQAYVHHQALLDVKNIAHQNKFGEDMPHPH
# experimental details: Inhibition of HDAC6 (unknown origin) using Boc-Lys(acetyl)-AMC as substrate preincubated for 5 mins followed by substrate addition and measured after 30 mins by fluorescence assay
reported endpoint: IC50 (nM)

Reference set, count: 3
1) O=C(NO)c1ccc(Cn2cc(Nc3ncc(Cl)c(Nc4ccc(F)cc4)n3)cn2)cc1	13
2) O=C(CCCCCCn1cc(Nc2ncc(Cl)c(Nc3cccc(Cl)c3)n2)cn1)NO	41
3) O=C(CCCCn1cc(Nc2ncc(Cl)c(Nc3ccc(F)cc3)n2)cn1)NO	310

(P) O=C(CCCCCCCn1cc(Nc2ncc(Cl)c(Nc3ccc(F)cc3)n2)cn1)NO
(Q) CNc1nc(Nc2cnn(CCCCCCC(=O)NO)c2)ncc1Cl
(R) O=C(CCCCCn1cc(Nc2ncc(Cl)c(Nc3ccc(Cl)cc3)n2)cn1)NO
(S) O=C(/C=C/c1ccc(Cn2cc(Nc3ncc(Cl)c(Nc4ccc(F)cc4)n3)cn2)cc1)NO
Exercise: Sort entries by IC50 from minimum to maximum value. Answer by naming the labels in the order asked.
Solution: R, Q, S, P
(R: 14 nM, Q: 29 nM, S: 63 nM, P: 300 nM)

* * *

Histone deacetylase 2 (Homo sapiens) measurements of pIC50, listed per entry.
Sequence (Q92769 whole entry): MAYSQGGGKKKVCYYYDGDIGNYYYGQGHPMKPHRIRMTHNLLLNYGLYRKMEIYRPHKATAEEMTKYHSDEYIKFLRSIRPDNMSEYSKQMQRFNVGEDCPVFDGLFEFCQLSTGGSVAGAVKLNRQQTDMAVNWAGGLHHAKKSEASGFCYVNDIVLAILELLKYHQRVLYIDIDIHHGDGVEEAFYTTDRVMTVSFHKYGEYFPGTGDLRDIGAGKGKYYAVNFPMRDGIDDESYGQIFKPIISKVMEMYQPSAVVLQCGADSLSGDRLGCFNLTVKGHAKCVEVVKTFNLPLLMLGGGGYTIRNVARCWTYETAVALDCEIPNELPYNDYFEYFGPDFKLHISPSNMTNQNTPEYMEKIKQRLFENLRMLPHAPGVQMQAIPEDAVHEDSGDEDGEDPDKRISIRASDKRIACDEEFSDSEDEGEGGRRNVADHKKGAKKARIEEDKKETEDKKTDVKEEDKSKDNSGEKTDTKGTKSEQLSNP
pIC50: −log10 of the molar value.
reported endpoint: pIC50

(1) O=C(NO)c1ccc(Cn2cc(Nc3ncc(Cl)c(Nc4ccc(F)cc4)n3)cn2)cc1
(2) O=C(CCCCn1cc(Nc2ncc(Cl)c(Nc3ccc(F)cc3)n2)cn1)NO
(3) O=C(CCCCCCCn1cc(Nc2ncc(Cl)c(Nc3ccc(F)cc3)n2)cn1)NO
Exercise: Rank the items above by pIC50, largest value first. Answer by naming the labels in the order asked.
Solution: 3, 1, 2

* * *

# Tested on: K562
# experimental details: Induction of apoptosis in human K562 cells assessed as necrotic apoptotic cells at 1 uM after 24 hrs by Annexin-V/propidium iodide staining-based flow cytometric analysis (reference value: 0.827%)
# Type: functional
# Lookup of reported Activity keyed by entry
Report only the number, with the unit % understood.

Reference set, count: 3
1) O=C(CCCCCn1cc(Nc2ncc(Cl)c(Nc3ccc(Cl)cc3)n2)cn1)NO	1.07
2) O=C(CCCCCCn1cc(Nc2ncc(Cl)c(Nc3cccc(Cl)c3)n2)cn1)NO	1.14
3) O=C(CCCCCCC(=O)Nc1ccccc1)NO	0.73

Activity for "N#CC[C@H](C1CCCC1)n1cc(-c2ncnc3[nH]ccc23)cn1" is 0.248

* * *

# System: K562
# experimental details: Induction of apoptosis in human K562 cells assessed as early apoptotic cells at 1 uM after 24 hrs by Annexin-V/propidium iodide staining-based flow cytometric analysis (reference value: 7.55%)
# Assay type: functional
reported endpoint: Activity (%)
Report only the number, with the unit % understood.

Activity for "O=C(CCCCCCC(=O)Nc1ccccc1)NO" is 14.5

* * *

# assay system: Non-receptor tyrosine-protein kinase TYK2 (Homo sapiens, UniProt P29597)
# Sequence (P29597 whole entry): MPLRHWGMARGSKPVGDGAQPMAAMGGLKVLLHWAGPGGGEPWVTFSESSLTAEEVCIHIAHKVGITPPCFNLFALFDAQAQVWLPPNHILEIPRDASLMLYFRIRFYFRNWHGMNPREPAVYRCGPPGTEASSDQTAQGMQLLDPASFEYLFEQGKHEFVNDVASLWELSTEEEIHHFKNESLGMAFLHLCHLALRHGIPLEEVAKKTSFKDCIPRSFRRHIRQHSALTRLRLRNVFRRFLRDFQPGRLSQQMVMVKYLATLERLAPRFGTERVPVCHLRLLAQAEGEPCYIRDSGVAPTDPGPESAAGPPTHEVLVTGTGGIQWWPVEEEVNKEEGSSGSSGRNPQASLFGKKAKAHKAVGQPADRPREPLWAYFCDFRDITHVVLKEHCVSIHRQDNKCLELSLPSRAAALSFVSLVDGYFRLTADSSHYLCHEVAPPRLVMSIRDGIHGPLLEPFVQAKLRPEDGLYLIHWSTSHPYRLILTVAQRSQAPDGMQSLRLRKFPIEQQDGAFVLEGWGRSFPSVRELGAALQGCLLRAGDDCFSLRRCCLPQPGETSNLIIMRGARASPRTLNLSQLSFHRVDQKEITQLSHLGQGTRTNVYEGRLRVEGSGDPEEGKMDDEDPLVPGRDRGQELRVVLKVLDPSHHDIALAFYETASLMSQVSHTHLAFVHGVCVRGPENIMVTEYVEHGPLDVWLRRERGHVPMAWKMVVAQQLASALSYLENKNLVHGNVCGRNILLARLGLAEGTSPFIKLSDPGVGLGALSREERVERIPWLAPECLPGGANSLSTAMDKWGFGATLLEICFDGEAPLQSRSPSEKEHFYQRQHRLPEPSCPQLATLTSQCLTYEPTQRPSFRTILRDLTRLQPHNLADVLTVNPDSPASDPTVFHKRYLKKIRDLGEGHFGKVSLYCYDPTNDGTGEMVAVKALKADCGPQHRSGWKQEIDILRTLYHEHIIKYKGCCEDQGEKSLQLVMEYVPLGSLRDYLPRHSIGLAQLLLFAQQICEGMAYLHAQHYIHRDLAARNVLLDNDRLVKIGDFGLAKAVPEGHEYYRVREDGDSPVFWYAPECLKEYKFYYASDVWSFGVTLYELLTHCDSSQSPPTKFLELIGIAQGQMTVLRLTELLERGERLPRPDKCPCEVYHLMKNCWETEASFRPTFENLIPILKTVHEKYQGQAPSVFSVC
# experimental details: Inhibition of recombinant human TYK2 using Ulight-CAGAGAIETDKEYYTVKD as substrate measured after 60 mins by LANCE assay
pIC50: −log10 of the molar value.
reported endpoint: pIC50

Reference set, count: 3
1. O=C(CCCCCCn1cc(Nc2ncc(Cl)c(Nc3cccc(Cl)c3)n2)cn1)NO	7.17
2. O=C(CCCCCn1cc(Nc2ncc(Cl)c(Nc3ccc(Cl)cc3)n2)cn1)NO	7.31
3. O=C(CCCCCCn1cc(Nc2ncc(Cl)c(N3CCCCC3)n2)cn1)NO	7.22

(A) O=C(CCCCCCn1cc(Nc2ncc(Cl)c(Nc3ccc(Cl)cc3)n2)cn1)NO
(B) O=C(CCCCCCn1cc(Nc2ncc(Cl)c(NC3CC3)n2)cn1)NO
Exercise: Hi, I'm comparing two records. Which one has the lower pIC50, A or B ? Select an item and report its label.
Solution: A
(A: 7.03, B: 7.92)

* * *

# assay system: Tyrosine-protein kinase JAK2 (Homo sapiens, UniProt O60674)
# Sequence (O60674 whole entry): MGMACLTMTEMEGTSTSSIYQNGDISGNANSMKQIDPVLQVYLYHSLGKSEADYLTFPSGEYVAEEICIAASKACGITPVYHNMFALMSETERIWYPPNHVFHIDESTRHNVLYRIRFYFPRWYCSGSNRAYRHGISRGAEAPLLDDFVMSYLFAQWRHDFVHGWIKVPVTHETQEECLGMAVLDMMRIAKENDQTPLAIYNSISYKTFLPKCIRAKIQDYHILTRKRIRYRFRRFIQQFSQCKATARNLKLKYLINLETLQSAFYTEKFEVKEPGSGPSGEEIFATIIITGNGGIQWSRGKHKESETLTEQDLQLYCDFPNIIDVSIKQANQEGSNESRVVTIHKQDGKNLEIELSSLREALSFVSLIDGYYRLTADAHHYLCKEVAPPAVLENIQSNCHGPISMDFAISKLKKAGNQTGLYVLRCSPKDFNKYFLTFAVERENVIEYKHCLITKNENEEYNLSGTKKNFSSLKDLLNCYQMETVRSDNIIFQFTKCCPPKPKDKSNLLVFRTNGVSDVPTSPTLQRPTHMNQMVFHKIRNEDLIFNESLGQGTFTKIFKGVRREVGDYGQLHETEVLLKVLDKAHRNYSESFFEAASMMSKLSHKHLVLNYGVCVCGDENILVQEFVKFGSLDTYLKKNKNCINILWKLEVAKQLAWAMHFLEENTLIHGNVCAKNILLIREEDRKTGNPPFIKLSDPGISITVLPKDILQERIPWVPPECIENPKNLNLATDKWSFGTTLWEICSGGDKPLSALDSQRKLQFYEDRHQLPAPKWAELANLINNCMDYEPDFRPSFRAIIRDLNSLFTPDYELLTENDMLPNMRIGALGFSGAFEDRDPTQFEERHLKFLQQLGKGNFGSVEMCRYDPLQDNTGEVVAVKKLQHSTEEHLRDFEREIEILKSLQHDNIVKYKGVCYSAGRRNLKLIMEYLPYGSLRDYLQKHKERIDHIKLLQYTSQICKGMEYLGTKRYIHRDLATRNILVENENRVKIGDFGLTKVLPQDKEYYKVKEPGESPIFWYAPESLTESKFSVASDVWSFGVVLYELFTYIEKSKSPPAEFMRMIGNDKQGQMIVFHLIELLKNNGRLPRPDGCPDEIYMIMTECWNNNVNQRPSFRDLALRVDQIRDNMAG
# experimental details: Inhibition of recombinant human JAK2 using Ulight-CAGAGAIETDKEYYTVKD as substrate measured after 60 mins by LANCE assay
pIC50: −log10 of the molar value.
reported endpoint: pIC50

Reference set, count: 6
1) CNc1nc(Nc2cnn(CCCCCCC(=O)NO)c2)ncc1C(F)(F)F	7.07
2) O=C(CCCCCn1cc(Nc2ncc(Cl)c(Nc3ccc(Cl)cc3)n2)cn1)NO	8.40
3) O=C(CCCn1cc(Nc2ncc(Cl)c(Nc3ccc(F)cc3)n2)cn1)NO	8.00
4) O=C(CCCCCCn1cc(Nc2ncc(Cl)c(N3CCOCC3)n2)cn1)NO	7.70
5) O=C(CCCCCCn1cc(Nc2ncc(Cl)c(Nc3ccccc3Cl)n2)cn1)NO	7.34
6) O=C(CCCCCn1cc(Nc2ncc(Cl)c(Nc3ccccc3Cl)n2)cn1)NO	7.74

(A) O=C(NO)c1ccc(Cn2cc(Nc3ncc(Cl)c(Nc4ccc(F)cc4)n3)cn2)cc1
(B) O=C(/C=C/c1ccc(Cn2cc(Nc3ncc(Cl)c(Nc4ccc(F)cc4)n3)cn2)cc1)NO
Exercise: Hi, I'm comparing two records. Which one has the lower pIC50, A or B ? Select an item and report its label.
Solution: B

* * *

# assay system: Histone deacetylase
# experimental details: Inhibition of HDAC in human HeLa nuclear extract using Boc-Lys(acetyl)-AMC as substrate preincubated for 5 mins followed by substrate addition and measured after 30 mins by fluorescence assay
# Type: cell-based
reported endpoint: IC50 (nM)

1) COc1ccc(Nc2nc(Nc3cnn(CCCCCCC(=O)NO)c3)ncc2Cl)cc1	3

(a) O=C(CCCCCCn1cc(Nc2ncc(Cl)c(Nc3ccc(Cl)cc3)n2)cn1)NO
(b) CNc1nc(Nc2cnn(CCCCCCC(=O)NO)c2)ncc1Cl
Exercise: Would you let me know which has the greater IC50 value, a or b ? Select an item and report its label.
Solution: b
(b: 15 nM, a: 2 nM)

(I) O=C(/C=C/c1ccc(Cn2cc(Nc3ncc(Cl)c(Nc4ccc(F)cc4)n3)cn2)cc1)NO
(II) O=C(CCCCCn1cc(Nc2ncc(Cl)c(Nc3cccc(Cl)c3)n2)cn1)NO
(III) CNc1nc(Nc2cnn(CCCCCCC(=O)NO)c2)ncc1C(F)(F)F
Exercise: Rank entries according to their IC50, from the largest number down. Answer by naming the labels in the order asked.
Solution: I, III, II

(I) O=C(CCCCCCn1cc(Nc2ncc(C(F)(F)F)c(Nc3ccc(F)cc3)n2)cn1)NO
(II) O=C(CCCCCn1cc(Nc2ncc(Cl)c(Nc3ccc(Cl)cc3)n2)cn1)NO
Exercise: Hi, I'm comparing two records. Which one has the lower IC50, I or II ? Select an item and report its label.
Solution: II
(II: 2 nM, I: 41 nM)

(A) O=C(CCCCCCCn1cc(Nc2ncc(Cl)c(Nc3ccc(F)cc3)n2)cn1)NO
(B) O=C(CCCCCCn1cc(Nc2ncc(Cl)c(Nc3ccccc3Cl)n2)cn1)NO
(C) O=C(CCCCCCn1cc(Nc2nccc(Nc3ccc(F)cc3)n2)cn1)NO
(D) O=C(CCCCCCn1cc(Nc2ncc(Cl)c(Nc3ccc(F)cc3)n2)cn1)NO
(E) O=C(CCCCn1cc(Nc2ncc(Cl)c(Nc3ccc(F)cc3)n2)cn1)NO
Exercise: Rank entries according to their IC50, from the largest number down. Answer by naming the labels in the order asked.
Solution: E, A, C, B, D

(I) O=C(CCCCCCn1cc(Nc2ncc(Cl)c(NC3CC3)n2)cn1)NO
(II) O=C(CCCCCCn1cc(Nc2ncc(Cl)c(Nc3cccc(Cl)c3)n2)cn1)NO
Exercise: Would you let me know which has the greater IC50 value, I or II ? Select an item and report its label.
Solution: II

* * *

# assay system: Tyrosine-protein kinase JAK1 (Homo sapiens, UniProt P23458)
# experimental details: Inhibition of recombinant human JAK1 using Ulight-CAGAGAIETDKEYYTVKD as substrate measured after 60 mins by LANCE assay
reported endpoint: IC50 (nM)

1) O=C(CCCCCCn1cc(Nc2ncc(Cl)c(Nc3ccc(Cl)cc3)n2)cn1)NO	10

(A) O=C(CCCCCCn1cc(Nc2ncc(Cl)c(Nc3cccc(Cl)c3)n2)cn1)NO
(B) O=C(CCCCCCn1cc(Nc2ncc(Cl)c(N3CCCCC3)n2)cn1)NO
Exercise: Would you let me know which has the greater IC50 value, A or B ? Select an item and report its label.
Solution: B
(B: 30 nM, A: 15 nM)

(a) O=C(CCCCCCn1cc(Nc2ncc(Cl)c(NC3CC3)n2)cn1)NO
(b) O=C(CCCCCn1cc(Nc2ncc(Cl)c(Nc3ccc(Cl)cc3)n2)cn1)NO
Exercise: Would you let me know which has the greater IC50 value, a or b ? Select an item and report its label.
Solution: a
(a: 14 nM, b: 4.8 nM)

* * *

# assay system: Tyrosine-protein kinase JAK2 (Homo sapiens)
# experimental details: Inhibition of recombinant human JAK2 using Ulight-CAGAGAIETDKEYYTVKD as substrate measured after 60 mins by LANCE assay
pIC50: −log10 of the molar value.
reported endpoint: pIC50

Reference set, count: 2
1) CNc1nc(Nc2cnn(CCCCCCC(=O)NO)c2)ncc1Cl	7.44
2) O=C(CCCCCCn1cc(Nc2ncc(Cl)c(Nc3ccc(F)cc3)n2)cn1)NO	7.82

(P) O=C(CCCCCCn1cc(Nc2ncc(Cl)c(N3CCCCC3)n2)cn1)NO
(Q) COc1ccc(Nc2nc(Nc3cnn(CCCCCCC(=O)NO)c3)ncc2Cl)cc1
Exercise: Would you let me know which has the greater pIC50 value, P or Q ? Select an item and report its label.
Solution: Q
(Q: 8.00, P: 7.30)
